Target: PDE6 in bovine retina (Bos taurus, UniProt P11541+P23439)
Construct: obtained by suitably treating various tissues and separating the enzyme with FPLC; from tissue; host or cells: bovine retina
Sequence (P11541 2-856 limits assumed): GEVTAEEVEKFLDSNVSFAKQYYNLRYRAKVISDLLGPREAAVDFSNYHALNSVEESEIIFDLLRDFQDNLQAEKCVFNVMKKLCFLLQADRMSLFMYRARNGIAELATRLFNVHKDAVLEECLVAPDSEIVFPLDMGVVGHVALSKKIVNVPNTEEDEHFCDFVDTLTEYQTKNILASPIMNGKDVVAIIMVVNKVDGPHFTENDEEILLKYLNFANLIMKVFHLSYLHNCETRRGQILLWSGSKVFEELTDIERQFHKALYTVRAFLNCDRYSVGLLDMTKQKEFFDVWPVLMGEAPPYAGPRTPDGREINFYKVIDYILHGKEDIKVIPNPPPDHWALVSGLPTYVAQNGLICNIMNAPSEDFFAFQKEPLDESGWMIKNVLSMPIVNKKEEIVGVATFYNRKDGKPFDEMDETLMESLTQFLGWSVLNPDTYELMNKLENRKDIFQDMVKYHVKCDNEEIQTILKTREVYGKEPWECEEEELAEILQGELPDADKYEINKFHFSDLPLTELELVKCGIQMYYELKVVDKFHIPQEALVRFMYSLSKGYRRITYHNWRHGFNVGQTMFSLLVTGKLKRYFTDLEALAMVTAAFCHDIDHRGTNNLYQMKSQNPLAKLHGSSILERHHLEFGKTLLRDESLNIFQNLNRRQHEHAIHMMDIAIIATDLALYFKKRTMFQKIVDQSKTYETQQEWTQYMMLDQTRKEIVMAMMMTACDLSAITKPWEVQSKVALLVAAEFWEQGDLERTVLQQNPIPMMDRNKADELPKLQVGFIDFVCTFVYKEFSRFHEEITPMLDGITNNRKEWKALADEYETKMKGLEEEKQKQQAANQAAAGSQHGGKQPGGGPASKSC
Sequence (P23439 2-850 limits assumed): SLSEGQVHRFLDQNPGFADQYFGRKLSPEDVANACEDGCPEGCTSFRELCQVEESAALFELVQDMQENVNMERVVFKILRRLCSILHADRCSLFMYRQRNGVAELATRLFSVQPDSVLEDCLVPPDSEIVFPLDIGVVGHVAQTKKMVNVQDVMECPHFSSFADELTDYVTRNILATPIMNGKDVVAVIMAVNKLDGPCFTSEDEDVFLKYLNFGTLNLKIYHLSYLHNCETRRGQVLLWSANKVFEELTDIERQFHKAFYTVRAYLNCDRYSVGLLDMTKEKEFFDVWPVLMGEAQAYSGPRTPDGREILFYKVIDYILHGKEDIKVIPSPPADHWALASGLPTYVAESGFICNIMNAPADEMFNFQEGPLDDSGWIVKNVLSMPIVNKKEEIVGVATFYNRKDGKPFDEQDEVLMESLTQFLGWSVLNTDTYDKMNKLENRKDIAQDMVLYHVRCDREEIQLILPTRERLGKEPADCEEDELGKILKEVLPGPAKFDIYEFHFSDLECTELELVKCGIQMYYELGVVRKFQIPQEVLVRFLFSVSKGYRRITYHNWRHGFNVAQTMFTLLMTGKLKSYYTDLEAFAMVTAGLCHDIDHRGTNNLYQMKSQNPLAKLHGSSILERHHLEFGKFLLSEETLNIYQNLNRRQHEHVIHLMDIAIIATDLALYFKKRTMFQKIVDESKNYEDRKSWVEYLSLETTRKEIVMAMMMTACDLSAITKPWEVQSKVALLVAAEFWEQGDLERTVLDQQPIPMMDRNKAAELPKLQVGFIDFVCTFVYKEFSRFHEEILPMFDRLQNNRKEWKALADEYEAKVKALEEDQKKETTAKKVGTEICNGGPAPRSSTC
Experiment: PDE6 enzyme inhibition activity test (scintillation proximity)
Format: biochemical
Settings: PDE6 separated from bovine retina; read-out: PDE6 IC50
propertyMeasured: IC50
The reply should consist of the numeric value with the unit placed after it.

Prompt: # query: IC50 of entry CCCOc1ccc(C(=O)NC(CC(N)=O)C(=O)O)cc1-c1nc(CC)c(CC)c(=O)[nH]1 (stereo not drawn)
Response: 6.64 nM

Prompt: Same again, this time with CCCOc1ccc(NC(=O)CC)cc1-c1nc(CC)c(CC)c(=O)[nH]1
Response: 13.2 nM

Prompt: Same again, this time with CCCOc1ccc(C(=O)N2CCOCC2)cc1-c1nc(CC)c(CC)c(=O)[nH]1
Response: 7.88 nM
